For each entry below, report its TGI value.
System: IGROV1 ovarian
METHOD SUMMARY: NCI tumour cell line growth inhibition, 48 h
Answers are plain numbers, in µM.

Challenge: Kindly indicate its recorded TGI. Item: CCN(Cc1nc2cc(C(F)(F)F)ccc2nc1-c1ccccc1)c1ccc(OC)c(OC)c1
Response given: 33.7

Challenge: State, in one line, measured TGI of COc1ccc2c(c1OC)-c1c(c3ccc([N+](=O)[O-])cc3c(=O)n1CCCN=[N+]=[N-])C2=O
Response given: 23.9

Next:
Challenge: Dear colleague, please send me the reported TGI for COc1cc(C)cc2c1C(=O)C(Br)=CC2=O when you can.
Response given: 31.7

* * *

Test system: SF-295 CNS
METHOD SUMMARY: NCI tumour cell line growth inhibition, 48 h
PROPERTY NAME: TGI (µM)
Give bare numbers, in µM.

Challenge: State measured TGI of the molecule CC(NC(=O)/C(C#N)=C/c1ccc2[nH]ccc2c1)c1ccccc1 (centres undefined) with SF-295 CNS.
Response given: 35.4

Challenge: Write down the reported TGI (system: SF-295 CNS) of COc1ccccc1CNC(=O)C1c2ccccc2C(=O)N(CC(C)C)C1c1cccs1 (centres undefined)
Response given: 67.8

Challenge: Provide SF-295 CNS TGI reading for O=C(c1cc(Br)ccc1O)c1cc(Br)ccc1O .
Response given: 33.7

Challenge: Using SF-295 CNS as the test system, report measured TGI of Cc1c2ncccc2nc2[nH]c3ccc(OCCN(C)C)cc3c12 .
Response given: 13

Challenge: Give TGI for this entry on SF-295 CNS: Cc1cnc2[nH]c(-c3ccc(F)cc3)cc(=O)c2c1
Response given: 99

Challenge: Give TGI for COc1ccc(Nc2nc(N)c(C(=O)c3ccc(OC)cc3)s2)cc1 tested on SF-295 CNS.
Response given: 40.6

Challenge: Please tell me the measured TGI for CCN(CC)Cc1ccc2cccnc2c1O ; system: SF-295 CNS.
Response given: 51.2

Challenge: State TGI (SF-295 CNS) of CC(C)C[C@H](NC(=O)CCc1ccccc1)B(O)O .
Response given: 34.5

Dear colleague, could you please provide TGI for the molecules listed below?
1. COc1cc(C2CC(c3ccc4c(c3)OCO4)=NN2C(C)=O)cc(OC)c1OC (centres undefined)
2. COc1cc2nc(-c3ccc(-n4cncc4-c4ccc(N)cc4)cc3)sc2c(OC)c1OC
3. C#CCOc1ccc2ncnc(Nc3ccc(NC(=O)CCl)cc3)c2c1
4. COc1cc(OC)c(OC)cc1/C=C1\C=Cc2ccccc21
5. CCN(Cc1nc2cc(C(F)(F)F)ccc2nc1-c1ccccc1)c1ccc(OC)c(OC)c1

Response given:
[4.51, 7.14, 24.5, 57.6, 31.8]

* * *

I'd be grateful if you could share measured GI50 for these entries.
System: OVCAR-5 ovarian
METHOD SUMMARY: NCI tumour cell line growth inhibition, 48 h

For orientation, consider the following solved cases.
Challenge: Tell me GI50 reported for COc1cc(-c2nn(C(=O)NS(=O)(=O)c3ccc(C)cc3)cc2-c2ccncc2)ccc1Cl
Response given: 5.53 µM

Challenge: Hello, please tell me recorded GI50 for this one: Cc1[nH]nc2c1N=C(c1ccccc1F)c1cc(C#N)ccc1N2
Response given: 7.12 µM

Hi there! I need GI50 for each item below, if you can.
1. CCOC(=O)CNC(=O)CCCn1c(=O)c2c3ccccc3n(C)c2n2nnc(-c3ccccc3)c12
2. O=C(Nc1cccc(C(F)(F)F)c1)c1cccc(NC2=C(Cl)C(=O)N(Cc3ccccc3)C2=O)c1
3. C[C@@H]1CC[C@H]2C(COC/C=C/COCC3=C(C(F)(F)F)O[C@@H]4O[C@@]5(C)CC[C@H]6[C@H](C)CC[C@@H]3[C@@]46OO5)=C(C(F)(F)F)O[C@@H]3O[C@@]4(C)CC[C@@H]1[C@]32OO4
4. COc1ccc2c(c1OC)-c1c(c3ccc([N+](=O)[O-])cc3c(=O)n1CCCN=[N+]=[N-])C2=O
5. BrC(Br)(Br)c1cnc2ccccc2n1
6. O=C(Nc1cccc2cccnc12)c1ccc(N2C(=O)[C@@H]3[C@H](C2=O)[C@@H]2C=C[C@H]3C2)cc1

Response given:
1. 27.7 µM
2. > 100 µM
3. 0.0175 µM
4. > 100 µM
5. 2.77 µM
6. 55.9 µM

* * *

System: DMS 114 small cell lung
METHOD SUMMARY: NCI tumour cell line growth inhibition, 48 h
PROPERTY NAME: TGI (µM)
Numbers only, in µM.

Challenge: Identify measured TGI corresponding to Cc1c2ccnc(-c3ccccc3)c2cc2c1[nH]c1ccccc12
Response given: 4.82

Challenge: Identify the reported TGI for the following entry. CC[C@@H](C)[C@H]([C@H](CC(=O)N1CCC[C@@H]1[C@@H](OC)[C@H](C)C(=O)N[C@H](Cc1ccccc1)c1nccs1)OC)N(C)C(=O)[C@H](NC(=O)[C@@H](C(C)C)N(C)C)C(C)C
Response given: 0.00123

Challenge: Let me know recorded TGI for Cc1cc(=O)[nH]c(NN2C(Cl)C(=O)C2c2cccc([N+](=O)[O-])c2)n1 (stereo unspecified) , thanks.
Response given: 55.4

Challenge: State, in one line, measured TGI of CC(C)(C)C1CCC2(CC1)CCN(CCCN1CCOCC1)CC2
Response given: 33.9

Quick batch: TGI for everything below.
1. CC(NC(=O)/C(C#N)=C/c1ccc2[nH]ccc2c1)c1ccccc1 (stereo unspecified)
2. C=C1CC2(OC1=O)c1ccccc1C=Cc1ccccc12

Response given:
1. 37.6
2. 21

* * *

Test system: UACC-257 melanoma
METHOD SUMMARY: NCI tumour cell line growth inhibition, 48 h
Kindly state TGI for each of the entries shown.

Challenge: Report value: TGI, system: UACC-257 melanoma, compound: O=c1oc2ccccc2cc1-c1nnc(-c2ccccc2)s1
Response given: > 100 µM

For every item in the list below, what is its measured TGI?
1. COc1ccc(/C=C/c2nc(=S)[nH][nH]2)cc1
2. O=C(NCCCNC(=O)OCc1ccc2c(Br)cc(Br)c(O)c2n1)OCc1ccc2c(Br)cc(Br)c(O)c2n1
3. CCOC(=O)N1c2ccccc2S(=O)(=O)c2ccccc21

Response given:
1. > 100 µM
2. > 100 µM
3. > 100 µM

* * *

System: HCC-2998 colon
METHOD SUMMARY: NCI tumour cell line growth inhibition, 48 h
Field: TGI. Provide a value for each of the compounds that follow.
Give bare numbers, in µM.

Challenge: Fill in: TGI on HCC-2998 colon, entry Cc1c(C2Cc3ccccc3N2C(=O)/C=C\C(=O)O)c2ccccc2n1C (configuration not stated)
Response given: 39.5

Provide TGI values for the following items, in order.
1. O=[N+]([O-])/C(Cl)=C(\Nc1ccccc1)C(Cl)=C(Cl)Cl
2. NC(N)=N/N=C/c1cccc(Cl)c1Cl
3. CC(C)C[C@H](NC(=O)CCc1ccccc1)B(O)O
4. BrC(Br)(Br)c1cnc2ccccc2n1

Response given:
1. 94.4
2. 3.47
3. 27
4. 3.6

Quick one: give me TGI for each item below, same order please.
1. CCc1ccccc1-n1c2nc(=O)n(C)c(=O)c-2nc2ccccc21
2. CCCCN(CCCC)CC(C)(C)C(O)c1ccc(OC)c2ccccc12 (configuration not stated)
3. COC1=CC(C2c3cc4c(cc3[C@@H](Nc3ccc([N+](=O)[O-])cc3)C3COC(=O)[C@H]23)OCO4)=CC(=O)C1=O (some centres not stated)
4. COc1ccc(NC(=O)Nc2ccc(Nc3nc(C)cc(Nc4ccc(C)cc4)n3)cc2)cc1
5. Cc1ccc(C)c(/C(=N\N=C(N)N)C2CC2)c1
6. COc1cc(-c2nn(C(=O)NS(=O)(=O)c3ccc(C)cc3)cc2-c2ccncc2)ccc1Cl
7. CC1=Nc2c([nH]c(=S)[nH]c2=O)NC(c2ccc(Cl)c(Cl)c2)C1 (configuration not stated)

Response given:
25.6
12
14.5
3.59
35.4
35.8
32

* * *

Exercise: for every item that follows, state its recorded TGI.
Test system: CAKI-1 renal
METHOD SUMMARY: NCI tumour cell line growth inhibition, 48 h
One number for each entry, in µM.

Challenge: Quick one: give measured TGI for COc1cc2ccc1-c1cc(ccc1O)CC1c3cc4c(cc3CCN1C)Oc1c(OC)cc3c(c1O4)C(C2)N(C)CC3 (configuration not stated)
Response given: 5.79

Provide reported TGI for each item, in the same order as listed.
1. CN(C)CCOc1nc2c3cccnc3cc(-c3cccc(Cl)c3)c2c2ncccc12
2. O=C(CC1(O)C(=O)Nc2ccc(Br)cc21)c1ccc(C(=O)NCC2CCC3(CC2)OOC2(CCCCC2)OO3)cc1 (configuration not stated)
3. CCOC(=O)c1c2c(c(O)c3ccccc3c(O)n(-c3ccc(C)cc3)c1C)C(=O)C=CC2=O
4. Oc1ccc(/C=N/Nc2nc3ccccc3s2)c(O)c1

Response given:
1. 2.92
2. 31.2
3. 43.3
4. 15.7

Value sought for every listed molecule: TGI.
1. COc1cc2nc(-c3ccc(-n4cncc4-c4ccc(N)cc4)cc3)sc2c(OC)c1OC
2. COc1cc(/C=C2\CC3C4CC=C5C[C@@H](N6CCCC6)CC[C@]5(C)C4CC[C@]3(C)[C@H]2OC(C)=O)ccc1OCCN1CCCCC1 (some centres not stated)
3. OCCSCc1cc2c(O)c(c1)Cc1cc(CSCCO)cc(c1O)Cc1cc(CSCCO)cc(c1O)Cc1cc(CSCCO)cc(c1O)C2
4. O=C(c1ccco1)c1c(C(F)(F)F)nc2cc(C(F)(F)F)ccc2[n+]1[O-]
5. O=C1C(Cl)=C(Nc2cccc(C(F)(F)F)c2)C(=O)N1Cc1ccccc1Cl
6. CCn1c(-c2nonc2N)nc2c(C#CC(C)(C)O)nc(O[C@@H](CN)c3ccccc3)cc21

Response given:
1. 5.85
2. 3.95
3. 9.63
4. 58.8
5. 21.6
6. 12.3
